biological target: human PD-1 / PD-L1-Ig binding on Jurkat cell line over-expressing human PD-1 (Jurkat-PD-1) (Homo sapiens, UniProt Q15116); construct: expressed in transfected cells; host or cells: Jurkat; assay: Jurkat-PD-1 Cell Binding High-Content Screening Assay (CBA); format: cell-based; settings: Jurkat-PD-1 cells, PE-labeled PD-L1-Ig 20 nM final; read-out: Jurkat HPD1_PDL1 IC50
Sequence (Q15116 25-288): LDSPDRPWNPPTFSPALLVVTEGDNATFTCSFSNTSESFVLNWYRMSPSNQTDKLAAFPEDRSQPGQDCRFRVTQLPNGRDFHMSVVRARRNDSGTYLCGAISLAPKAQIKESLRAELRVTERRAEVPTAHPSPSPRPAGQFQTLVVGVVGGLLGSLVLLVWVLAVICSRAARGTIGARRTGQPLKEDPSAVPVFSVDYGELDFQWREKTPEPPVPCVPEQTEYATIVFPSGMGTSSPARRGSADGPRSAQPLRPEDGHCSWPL
Where a SMILES comes first, the peptide text is derived from it. Bridges are numbered along the chain shown (N, C = ends). [ ]: non-standard residue; d: D form. Bip = N[C@@H](Cc1ccc(-c2ccccc2)cc1)C(=O)O; Orn = NCCC[C@H](N)C(=O)O
ASSAY ENDPOINT: pIC50
Please express pIC50 as -log10 of the molar concentration.

CC(C)C[C@@H]1NC(=O)[C@H](Cc2c[nH]c3ccccc23)NC(=O)[C@H](CC(=O)O)NC(=O)[C@H](Cc2ccc(O)cc2)NC(=O)[C@H](Cc2ccccc2)NC(=O)CSC[C@@H](C(=O)NCC(N)=O)NC(=O)[C@H](CO)NC(=O)[C@H](C(C)C)NC(=O)[C@H](CC(C)C)NC(=O)[C@H](CC(N)=O)NC(=O)[C@@H](CC(C)C)NC(=O)[C@H](CCCN)NC(=O)[C@H](C(C)C)NC(=O)[C@H](Cc2ccc(-c3ccccc3)cc2)NC1=O [Compound 1067] ({CH2CO}-FYDWL[Bip]V[Orn][dL]NLVSCG-NH2; thioether N-14); 7.65

In plain terms, CCC(C)[C@@H]1NC(=O)[C@H](Cc2ccc(-c3ccccc3)cc2)NC(=O)[C@H](C(C)C)NC(=O)[C@H](Cc2c[nH]c3ccccc23)NC(=O)[C@H](CC(=O)O)NC(=O)[C@H](Cc2ccc(OCC(=O)O)cc2)NC(=O)[C@H](Cc2cccc3ccccc23)NC(=O)CSC[C@@H](C(=O)N[C@@H](C)C(N)=O)NC(=O)[C@H](C(C)O)NC(=O)[C@H](C(C)C)NC(=O)[C@H](CC2CCCCC2)NC(=O)[C@H](CCN)NC(=O)[C@@H](CC(C)C)NC(=O)[C@H](CCCN)NC1=O (some centres unmarked) has a documented pIC50 of 7.42

* * *

Target: human PD-1 / PD-L1-Ig binding on Jurkat cell line over-expressing human PD-1 (Jurkat-PD-1) (Homo sapiens, UniProt Q15116)
Construct: expressed in transfected cells; host or cells: Jurkat
Test: Jurkat-PD-1 Cell Binding High-Content Screening Assay (CBA)
Type: cell-based
Conditions: Jurkat-PD-1 cells, PE-labeled PD-L1-Ig 20 nM final; read-out: Jurkat HPD1_PDL1 IC50
Procedure: Example 3. Jurkat-PD-1 Cell Binding High-Content Screening Assay (CBA) Jurkat-PD-1 Cell Binding High-Content Screening Assay (CBA). Phycoerythrin (PE) was covalently linked to the Ig epitope tag of human PD-L1-Ig and fluorescently-labeled PD-L1-Ig was used for binding studies with a Jurkat cell line over-expressing human PD-1 (Jurkat-PD-1). Briefly, 8×10^3 Jurkat-hPD-1 cells were seeded into 384 well plates in 20 μl of DMEM supplemented with 10% fetal calf serum. […]
Where a SMILES comes first, the peptide text is derived from it. Bridges are numbered along the chain shown (N, C = ends). [ ]: non-standard residue; d: D form. Bip = N[C@@H](Cc1ccc(-c2ccccc2)cc1)C(=O)O; 4Pal = N[C@@H](Cc1ccncc1)C(=O)O; Orn = NCCC[C@H](N)C(=O)O; Dab = NCC[C@H](N)C(=O)O; Dap = NC[C@H](N)C(=O)O
Below, each entry is listed alongside its reported IC50.
Write down the numeric answer in nM and omit the unit.

CC(C)C[C@H]1NC(=O)[C@H](CCCN)NC(=O)[C@H](C(C)C)NC(=O)[C@H](Cc2ccc(-c3ccccc3)cc2)NC(=O)[C@H](C(C)C)NC(=O)[C@H](Cc2c[nH]c3ccccc23)NC(=O)[C@H](CC(=O)O)NC(=O)[C@H](Cc2ccc(OCC(=O)O)cc2)NC(=O)[C@@H]2CC(N)CN2C(=O)CSC[C@@H](C(=O)N[C@@H](C)C(N)=O)NC(=O)[C@H](C(C)O)NC(=O)[C@H](C(C)C)NC(=O)[C@H](CC2CCCCC2)NC(=O)[C@H](CCN)NC1=O (some centres unmarked) [Compound 2523]; 9.6

Attention now turns to another entry.
In plain terms, CC(C)C[C@@H]1NC(=O)[C@H](CCN)NC(=O)[C@@H](CC(C)C)NC(=O)[C@H](CCCN)NC(=O)[C@H](CCCNC(=N)N)NC(=O)[C@H](Cc2ccc(-c3ccccc3)cc2)NC(=O)[C@H](C(C)C)NC(=O)[C@H](Cc2c[nH]c3ccccc23)NC(=O)[C@H](CC(=O)O)NC(=O)[C@H](Cc2ccncc2)NC(=O)[C@H](CN)NC(=O)CSC[C@@H](C(=O)N[C@@H](C)C(N)=O)NC(=O)[C@H]([C@@H](C)O)NC(=O)[C@H](C(C)C)NC1=O [Compound 1244] ({CH2CO}-[Dap][4Pal]DWV[Bip]R[Orn][dL][Dab]LVTCA-NH2; thioether N-14) has a documented IC50 of 22.3
